- System: human GABA α1β3β2 receptors
- assayInfo: GABAa, 3H-muscimol binding assay
- conditionsUsed: activity at 10 μM as percentage of activity of control compound P18 at 10 μM (increase of 3H-muscimol binding)
assayReadout: % GABA Example (%)
Numeric answer only, unit % assumed.

Reference set, count: 6
CC(=O)Nc1c(C(=O)C(C)(C)O)oc2nc(-c3ccc(-c4cn[nH]c4)cc3Cl)c(-c3ccc(Cl)cc3)cc12 : 38
CC(C)(C)C(=O)c1oc2nc(-c3ccc(-c4cc[nH]n4)cc3Cl)c(-c3ccc(Cl)cc3)cc2c1C(N)=O : 13
CC(C)C(=O)Nc1c(C(=O)C(C)(C)C)oc2nc(-c3ccc(-c4cn[nH]c4)cc3Cl)c(-c3ccc(Cl)cc3)cc12 : 3
CCc1c(C(=O)C(C)(C)O)oc2nc(-c3ccc(-c4c[nH]nc4C)cc3Cl)c(-c3ccc(Cl)cc3)cc12 : 59
CC(=O)Nc1c(C(=O)C(C)(C)O)oc2nc(-c3ccc(-c4cc[nH]n4)cc3Cl)c(-c3ccc(Cl)cc3)cc12 : 26
CC(C)(O)C(=O)c1oc2nc(-c3ccc(-c4cn[nH]c4)cc3Cl)c(-c3ccc(Cl)cc3)cc2c1NC(=O)CO : 30

Now consider the entry below.
Query: Read off the recorded % GABA Example for Cc1c(S(=O)(=O)C(C)(C)C)oc2nc(-c3ccc(-c4cn[nH]c4)cc3Cl)c(-c3ccc(Cl)cc3)cc12
Reply: 7

---

- Test system: human GABA α1β3β2 receptors
- assayInfo: GABAa, 3H-muscimol binding assay
- conditionsUsed: activity at 10 μM as percentage of activity of control compound P18 at 10 μM (increase of 3H-muscimol binding)
Response field label takes YES when % GABA Example is strictly below 30% and NO in all other cases.

Cc1c(S(=O)(=O)C(C)(C)C)oc2nc(-c3ccc(-c4cc[nH]n4)cc3Cl)c(-c3ccc(Cl)cc3)cc12 : YES
C[C@H](O)C(=O)Nc1c(C(=O)C(C)(C)C)oc2nc(-c3ccc(-c4cn[nH]c4)cc3Cl)c(-c3ccc(Cl)cc3)cc12 : YES
CC(=O)Nc1c(C(=O)C(C)(C)C)oc2nc(-c3ccc(-c4cc[nH]n4)cc3Cl)c(-c3ccc(Cl)cc3)cc12 : YES

Query: Confirm or reject: % GABA Example of Cc1n[nH]cc1-c1ccc(-c2nc3oc(C(=O)C(C)C)c(N4CCCC4=O)c3cc2-c2ccc(Cl)cc2)c(Cl)c1 lies strictly below 30%
Reply: YES

Query: Confirm or reject: % GABA Example of CNC(=O)c1c(C(=O)C(C)(C)C)oc2nc(-c3ccc(-c4cc[nH]n4)cc3Cl)c(-c3ccc(Cl)cc3)cc12 lies strictly below 30%
Reply: YES

Query: Confirm or reject: % GABA Example of CC(C)(C)C(=O)c1oc2nc(-c3ccc(-c4cn[nH]c4)cc3Cl)c(-c3ccc(Cl)cc3)cc2c1NC(=O)CO lies strictly below 30%
Reply: YES

Query: Confirm or reject: % GABA Example of Cc1c(C(=O)C(C)(C)C)oc2nc(-c3ccc(-c4ncon4)cc3Cl)c(-c3ccc(Cl)cc3)cc12 lies strictly below 30%
Reply: YES

Query: Confirm or reject: % GABA Example of CCC(=O)c1oc2nc(-c3ccc(-c4cn[nH]c4)cc3Cl)c(-c3ccc(Cl)cc3)cc2c1NC(=O)CO lies strictly below 30%
Reply: NO

---

- Tested on: human GABA α1β3β2 receptors
- assayInfo: GABAa, 3H-muscimol binding assay
- conditionsUsed: parent compound without R^4 heteroaryl; activity at 10 μM as percentage of activity of control compound P18 at 10 μM
assayReadout: % GABA Parent (%)
Numeric answer only, unit % assumed.

Reference set, count: 2
CC(C)(C)C(=O)c1oc2nc(-c3ccccc3Cl)c(-c3ccc(Cl)cc3)cc2c1CO [Example P20, reference compound] : 50
Cc1c(C(=O)C(C)(C)O)oc2nc(-c3ccccc3Cl)c(-c3ccc(Cl)cc3)cc12 [Example P7, reference compound] : 75

Query: Read off the recorded % GABA Parent for CC(C)C(=O)c1oc2nc(-c3ccccc3Cl)c(-c3ccc(Cl)cc3)cc2c1N1CCCC1=O [Example P17, reference compound]
Reply: 100

---

Reported % GABA Parent values for a set of compounds
- Test system: human GABA α1β3β2 receptors
- assayInfo: GABAa, 3H-muscimol binding assay
- conditionsUsed: parent compound without R^4 heteroaryl; activity at 10 μM as percentage of activity of control compound P18 at 10 μM
Numeric answer only, unit % assumed.

Cc1c(C(=O)C(C)C)oc2nc(-c3ccccc3Cl)c(-c3ccc(Cl)cc3)cc12 [Example P14, reference compound] : 51
CCC(=O)c1oc2nc(-c3ccccc3Cl)c(-c3ccc(Cl)cc3)cc2c1C [Example P15, reference compound] : 50
CCc1c(C(=O)C(C)(C)O)oc2nc(-c3ccccc3Cl)c(-c3ccc(Cl)cc3)cc12 [Example P19, reference compound] : 96
CC(=O)Nc1c(C(=O)C(C)C)oc2nc(-c3ccccc3Cl)c(-c3ccc(Cl)cc3)cc12 [Example P2, reference compound] : 107

Now consider the entry below.
Query: Read off the recorded % GABA Parent for CC(C)(C)C(=O)c1oc2nc(-c3ccccc3Cl)c(-c3ccc(Cl)cc3)cc2c1NC(=O)CO [Example P16, reference compound]
Reply: 90

---

- System: human GABA α1β3β2 receptors
- assayInfo: GABAa, 3H-muscimol binding assay
- conditionsUsed: activity at 10 μM as percentage of activity of control compound P18 at 10 μM (increase of 3H-muscimol binding)
Response field label takes Condition met when % GABA Example is strictly below 20% and Condition not met in all other cases.

Consider the worked cases shown below.
CC(=O)Nc1c(C(=O)C(C)(C)C)oc2nc(-c3ccc(-c4cn[nH]c4)cc3Cl)c(-c3ccc(Cl)cc3)cc12 : Condition met
Cc1c(C(=O)CC(C)C)oc2nc(-c3ccc(-c4cn[nH]c4)cc3Cl)c(-c3ccc(Cl)cc3)cc12 : Condition not met

Query: Confirm or reject: % GABA Example of CC(C)C(=O)c1oc2nc(-c3ccc(-c4cc[nH]n4)cc3Cl)c(-c3ccc(Cl)cc3)cc2c1N1CCCC1=O lies strictly below 20%
Reply: Condition met

Query: Confirm or reject: % GABA Example of CC(=O)Nc1c(C(=O)C(C)C)oc2nc(-c3ccc(-c4cc[nH]n4)cc3Cl)c(-c3ccc(Cl)cc3)cc12 lies strictly below 20%
Reply: Condition met

Query: Confirm or reject: % GABA Example of CC(=O)c1c(C(=O)C(C)C)oc2nc(-c3ccc(-c4c[nH]nc4C)cc3Cl)c(-c3ccc(Cl)cc3)cc12 lies strictly below 20%
Reply: Condition not met

Query: Confirm or reject: % GABA Example of Cc1n[nH]cc1-c1ccc(-c2nc3oc(C(=O)C(C)(C)C)c(CO)c3cc2-c2ccc(Cl)cc2)c(Cl)c1 lies strictly below 20%
Reply: Condition met

Source listed as patent US20080269279A1.
